- procedure-details: Volume of distribution at steady state in dog at 1 to 3 mg/kg
- Type: ADME, organism-based, Canis lupus familiaris
- Parameters: dose 1-3 mg/kg
- experimental-context: in vivo, read-out: Vdss
For each of the compounds below, state its Vd.
Field: value (include unit after the number)

Qu. Report Vd for CC1(C)Oc2ncnc(N)c2N=C1c1ccc(C23CCC(CC(=O)O)(CC2)CC3)cc1 please.
Ans. 1 L/kg

Qu. Report Vd for CC1(C)Oc2ncnc(N)c2N=C1c1ccc([C@H]2CC[C@H](CC(=O)O)CC2)cc1 please.
Ans. 2 L/kg

* * *

- procedure-details: Plasma clearance in rat at 1 to 3 mg/kg
- Assay type: ADME, organism-based
- Design: dose 1-3 mg/kg
readout: clearance (mL/min/kg)
Give the value in mL/min/kg but do not write mL/min/kg after it.

Qu. Report clearance for CC1(C)Oc2ncnc(N)c2N=C1c1ccc([C@H]2CC[C@H](CC(=O)O)CC2)cc1 please.
Ans. 5.2

Qu. Report clearance for CC1(C)Oc2ncnc(N)c2N=C1c1ccc(C23CCC(CC(=O)O)(CC2)CC3)cc1 please.
Ans. 1.5
